Exercise: state measured Volume gastric juice secretion for each of the molecules provided.
Test system: gastric secretion
ASSAY NAME: Activity on gastric secretion "in vivo" (volume and total acidity of gastric juice after pylorus tieing, Shay)
Set-up: species or system male Wistar rats
MEASUREMENT CONDITIONS: 20 mg/kg oral, 12 hours before pilorus tieing

Reported Volume gastric juice secretion for "CN(C)Cc1ccc(CSCCNc2nc(-c3ccccc3)cs2)o1" was 4,1 ml/4 hours

Entry CNC(=C[N+](=O)[O-])NCCSCc1ccc(CN(C)C)o1 [Ranitidine, reference compound] , Volume gastric juice secretion reported as 4,9 ml/4 hours

molecule "CN(C)Cc1ccc(CSCCNc2nc(-c3ccc4ccccc4c3)cs2)o1" , Volume gastric juice secretion observed: 2,9 ml/4 hours

// "CN(C)Cc1ccc(CSCCNc2nc(-c3ccc(-c4ccccc4)cc3)cs2)o1" : Volume gastric juice secretion value = 3,8 ml/4 hours

The reported Volume gastric juice secretion of the molecule "CN(C)Cc1ccc(CSCCNc2nc(-c3ccc(Oc4ccccc4)cc3)cs2)o1" was 3,9 ml/4 hours

The molecule "CN(C)Cc1ccc(CSCCNC(=S)NC(=O)c2ccccc2)o1" showed Volume gastric juice secretion equal to 4,0 ml/4 hours

Summary for this molecule, "CN(C)Cc1ccc(CSCCNc2nc(C=Cc3ccccc3)cs2)o1" : Volume gastric juice secretion is 4,0 ml/4 hours

###

Test system: gastric secretion
ASSAY NAME: Activity on gastric secretion "in vivo" (volume and total acidity of gastric juice after pylorus tieing, Shay)
Set-up: species or system male Wistar rats
MEASUREMENT CONDITIONS: 20 mg/kg oral, 6 hours before pilorus tieing
MEASURE NAME: Total acidity gastric juice secretion

Reading of Total acidity gastric juice secretion for "CN(C)Cc1ccc(CSCCNc2nc(C=Cc3ccccc3)cs2)o1" with gastric secretion: 0,09 mEq/4 hours

The compound "CN(C)Cc1ccc(CSCCNc2nc(-c3ccc4ccccc4c3)cs2)o1" , when measured on gastric secretion, yielded Total acidity gastric juice secretion of 0,05 mEq/4 hours

Let me check: "CN(C)Cc1ccc(CSCCNc2nc(-c3ccc(-c4ccccc4)cc3)cs2)o1" , system gastric secretion, measured Total acidity gastric juice secretion is 0,08 mEq/4 hours

# lookup: "CN(C)Cc1ccc(CSCCNc2nc(-c3ccccc3)cs2)o1" on gastric secretion, Total acidity gastric juice secretion = 0,07 mEq/4 hours

Readout Total acidity gastric juice secretion for "CN(C)Cc1ccc(CSCCNc2nc(-c3ccc(Oc4ccccc4)cc3)cs2)o1" , test system gastric secretion, was 0,09 mEq/4 hours

// returns Total acidity gastric juice secretion for CNC(=C[N+](=O)[O-])NCCSCc1ccc(CN(C)C)o1 [Ranitidine, reference compound] with gastric secretion; value = 0,12 mEq/4 hours

Note to self: Total acidity gastric juice secretion of "CN(C)Cc1ccc(CSCCNC(=S)NC(=O)c2ccccc2)o1" with gastric secretion was 0,08 mEq/4 hours

###

ASSAY NAME: Acute toxicity (DL50) in rat
MEASUREMENT CONDITIONS: in vivo, po
MEASURE NAME: LD50 (mg/kg)
Your answer is read as mg/kg, so omit the unit and give the number.

CNC(=C[N+](=O)[O-])NCCSCc1ccc(CN(C)C)o1 [Ranitidine, reference compound] yielded LD50 of 2000

###

TARGET: histamine H2 receptors (Cavia porcellus, UniProt P47747)
Construct: tests on insulated atrium auricolas of Guinea pig heart; from tissue; host or cells: isolated guinea pig heart atrium
Sequence (P47747 whole entry): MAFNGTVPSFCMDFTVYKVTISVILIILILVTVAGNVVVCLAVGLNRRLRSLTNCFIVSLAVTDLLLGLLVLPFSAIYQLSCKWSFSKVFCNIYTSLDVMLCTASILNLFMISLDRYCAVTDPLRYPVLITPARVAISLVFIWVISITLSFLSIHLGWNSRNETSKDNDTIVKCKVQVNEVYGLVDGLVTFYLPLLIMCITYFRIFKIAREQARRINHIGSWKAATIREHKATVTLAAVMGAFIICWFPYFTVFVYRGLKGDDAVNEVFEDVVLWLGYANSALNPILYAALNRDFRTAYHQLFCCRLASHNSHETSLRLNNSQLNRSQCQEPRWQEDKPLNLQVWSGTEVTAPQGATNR
ASSAY NAME: Antagonistic activity to the histamine H2 receptors "in vitro" on insulated atrium auricolas of Guinea pig heart
MEASUREMENT CONDITIONS: guinea pig, 0.5 h, compound 1·10^-5 M/L; histamine 5·10^-6 M/L; read-out: Antagonizing activity to histamine H2 receptors
Would you mind telling me the reported inhibition at 10 µM of each entry?
The reply should be a number in %, with the unit left off.

Item: "CN(C)Cc1ccc(CSCCNc2nc(C=Cc3ccccc3)cs2)o1" | inhibition at 10 µM: 100

Reported inhibition at 10 µM for CN/C(=N/CCSCc1nc[nH]c1C)NC#N [Cimetidine, reference compound] was 50

Note to self: inhibition at 10 µM recorded for "CN(C)Cc1ccc(CSCCNc2nc(-c3ccc4ccccc4c3)cs2)o1" was 90

Reported inhibition at 10 µM of "CN(C)Cc1ccc(CSCCNC(=S)NC(=O)c2ccccc2)o1" : 100

Item: "CN(C)Cc1ccc(CSCCNc2nc(-c3ccc(-c4ccccc4)cc3)cs2)o1" | inhibition at 10 µM: 100

For record "CN(C)Cc1ccc(CSCCNc2nc(-c3ccc(Oc4ccccc4)cc3)cs2)o1" the listed inhibition at 10 µM is 90

// inhibition at 10 µM value for "CN(C)Cc1ccc(CSCCNc2nc(-c3ccccc3)cs2)o1" : 100
